# SYSTEM: T1, human ADAMTS5 (human, UniProt Q9UNA0 262-622, limits assumed)
# T1 construct: Octet and ELISA used 'recombinant human ADAMTS5'; also called recombinant human ADAMTS5; ADAMTS5 (R&D Systems 2198-AD)
# T1 sequence: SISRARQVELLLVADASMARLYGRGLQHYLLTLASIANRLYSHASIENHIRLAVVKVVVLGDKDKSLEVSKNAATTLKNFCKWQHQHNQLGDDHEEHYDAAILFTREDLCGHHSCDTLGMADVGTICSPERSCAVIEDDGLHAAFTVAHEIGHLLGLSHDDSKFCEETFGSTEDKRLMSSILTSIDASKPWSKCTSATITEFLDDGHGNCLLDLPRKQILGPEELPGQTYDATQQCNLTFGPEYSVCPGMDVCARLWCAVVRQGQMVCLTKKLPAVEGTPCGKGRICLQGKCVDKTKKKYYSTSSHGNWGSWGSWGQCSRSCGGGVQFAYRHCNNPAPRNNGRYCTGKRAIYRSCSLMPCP
# ASSAY_TEXT: Biacore, mAb from culture supernatant captured on anti-human IgG, ADAMTS5 (R&D 2198-AD) at 64 nM, 1:1 fit
PROPERTY: Kd

binder="BPC1636 (antibody, human IgG1, kappa, V domains shown, Humanized, human gamma 1 / kappa; also called 7B4 H2L0) VH: EVQLVESGGGLVQPGGSLRLSCAASGFTSSDAWMDWVRQAPGKGLEWVAEIRNKANNHARHYAESVKGRFTISRDNAKNSLYLQMNSLRAEDTAVYYCARTYYYGSSYGYCDVWGQGTLVTVSS VL: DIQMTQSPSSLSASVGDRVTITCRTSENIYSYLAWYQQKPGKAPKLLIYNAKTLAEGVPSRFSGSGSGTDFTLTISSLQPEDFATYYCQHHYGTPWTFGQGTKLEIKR" result="0.836 nM"
binder="BPC1634 (antibody, human IgG1, kappa, V domains shown, Humanized, human gamma 1 / kappa; also called 7B4 H0L0; Humanized 7B4.1E11 H0L0) VH: EVQLVESGGGLVQPGGSLRLSCAASGFTFSDAWMDWVRQAPGKGLEWVAEIRNKANNHARHYAESVKGRFTISRDNAKNSLYLQMNSLRAEDTAVYYCARTYYYGSSYGYCDVWGQGTLVTVSS VL: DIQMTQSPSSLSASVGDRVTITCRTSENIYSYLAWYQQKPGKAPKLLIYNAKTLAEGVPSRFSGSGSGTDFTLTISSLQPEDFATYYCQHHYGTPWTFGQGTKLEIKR" result="0.869 nM"
